Listing: pIC50 of selected molecules
- Tested on: SW480 cells
- test: MTT cytotoxicity assay, SW480
- Type: cell-based, human
- measurementSetup: Homo sapiens, SW480, 72 h, read-out: IC50 SW480
Recall that pIC50 is obtained by taking minus log10 of the concentration measured in molar.

In the examples that follow, each entry is paired with its recorded pIC50.
| molecule | assayValue |
| --- | --- |
| COc1cc(-c2nc3ccc(C(=O)Nc4cccc([N+](=O)[O-])c4)cc3[nH]2)cc(OC)c1OC [Compound 5k] | 4.78 |
| CCCCNC(=O)c1ccc2nc(-c3cc(OC)c(OC)c(OC)c3)[nH]c2c1 [Compound 5a] | 4.34 |
| COc1cc(-c2nc3ccc(C(=O)Nc4cccc(Cl)c4)cc3[nH]2)cc(OC)c1OC [Compound 5h] | 4.28 |

Req: What value of measured pIC50 is listed for COc1cc(-c2nc3ccc(C(=O)Nc4ccccc4Cl)cc3[nH]2)cc(OC)c1OC [Compound 5g] ?
Resp: 4.31

Data origin: paper PMC11536976
